The measurements presented in this section are drawn from ChEMBL document CHEMBL1140325.

ASSAYED_SYSTEM: 3-beta-hydroxysteroid-Delta(8),Delta(7)-isomerase (Homo sapiens, UniProt Q15125)
Sequence (Q15125 whole entry): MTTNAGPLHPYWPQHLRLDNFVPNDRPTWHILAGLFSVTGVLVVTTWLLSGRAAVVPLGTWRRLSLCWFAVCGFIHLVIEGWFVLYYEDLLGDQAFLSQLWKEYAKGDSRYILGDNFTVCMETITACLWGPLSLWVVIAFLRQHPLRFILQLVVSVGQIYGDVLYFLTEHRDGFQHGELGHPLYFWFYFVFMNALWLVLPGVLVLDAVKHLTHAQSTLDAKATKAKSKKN
MEASUREMENT_PROTOCOL: Affinity for human EMP expressed in ERG2 deficient strain of Saccharomyces cerevisiae using [3H]ifenprodil or (+)-[3H]pentazocine as radioligand
MEASURED_PARAMETER: Ki (nM)
Quick reminder: number only, in nM, skip the unit.

Input line: Give the measured Ki of N=C(NCCSC(c1ccccc1)c1ccccc1)NCCc1cnc[nH]1 .
Output line: 39

Input line: Give the measured Ki of CC1=C2C[C@H]3[C@@H](CC=C4C[C@@H](O)CC[C@@]43C)[C@@H]2CC[C@]12O[C@]1(C)C[C@H](C)CN[C@H]1[C@H]2C .
Output line: 654

Input line: Give the measured Ki of O=C(CCCN1CCC(O)(c2ccc(Cl)cc2)CC1)c1ccc(F)cc1 [HALOPERIDOL] .
Output line: 190
